Target: S. aureus FtsZ (SaFtsZ) (Staphylococcus aureus, UniProt P0A031)
Sequence (P0A031 1-390): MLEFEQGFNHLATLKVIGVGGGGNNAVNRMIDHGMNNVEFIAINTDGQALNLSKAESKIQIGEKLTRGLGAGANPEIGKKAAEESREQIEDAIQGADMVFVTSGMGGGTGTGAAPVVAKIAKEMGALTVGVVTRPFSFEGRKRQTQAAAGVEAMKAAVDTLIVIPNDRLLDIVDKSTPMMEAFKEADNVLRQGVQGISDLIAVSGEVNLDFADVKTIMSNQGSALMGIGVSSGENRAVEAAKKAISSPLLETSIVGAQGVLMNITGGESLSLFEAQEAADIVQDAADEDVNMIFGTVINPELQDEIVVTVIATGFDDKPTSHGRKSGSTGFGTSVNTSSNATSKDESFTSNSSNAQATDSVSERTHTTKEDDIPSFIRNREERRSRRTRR
Test: Fluorescence anisotropy binding of BOFP to FtsZ
measured.quantity: Kd

molecule	endpoint.result
CC1=CC(C)=[N+]2C1=Cc1ccc(CCC(=O)OCC(Oc3ccc(F)c(C(N)=O)c3F)c3nc(-c4ccc(C(F)(F)F)cc4)c(Br)o3)n1[B-]2(F)F (stereo not shown) [BOFP]	880 to 3140 nM

---

Molecular target: Escherichia coli FtsZ (EcFtsZ) (Escherichia coli)
Sequence (P0A9A6 whole entry): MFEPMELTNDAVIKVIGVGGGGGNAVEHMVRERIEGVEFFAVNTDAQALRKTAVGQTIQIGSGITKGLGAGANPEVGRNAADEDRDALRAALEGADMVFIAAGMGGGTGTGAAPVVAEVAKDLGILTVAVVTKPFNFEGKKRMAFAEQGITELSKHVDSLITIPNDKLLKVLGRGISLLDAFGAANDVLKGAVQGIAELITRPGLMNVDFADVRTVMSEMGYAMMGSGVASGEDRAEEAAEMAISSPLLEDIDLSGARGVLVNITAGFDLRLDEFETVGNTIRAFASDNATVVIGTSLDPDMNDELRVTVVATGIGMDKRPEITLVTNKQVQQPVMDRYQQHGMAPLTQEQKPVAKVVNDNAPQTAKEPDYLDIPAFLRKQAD
Assay: Fluorescence anisotropy binding of BOFP to FtsZ
Details: 15° C., 50 mM Tris-HCl (pH 7.6), 50 mM KCl, read-out: Kd −15° C.

molecule	tested.target	Kd (nM)
CC1=CC(C)=[N+]2C1=Cc1ccc(CCC(=O)OCC(Oc3ccc(F)c(C(N)=O)c3F)c3nc(-c4ccc(C(F)(F)F)cc4)c(Br)o3)n1[B-]2(F)F (stereo not shown)	Escherichia coli FtsZ (EcFtsZ) (Escherichia coli)	220

---

Biological target: Pseudomonas aeruginosa FtsZ (PaFtsZ) (Pseudomonas aeruginosa, UniProt P47204)
Sequence (P47204 1-394): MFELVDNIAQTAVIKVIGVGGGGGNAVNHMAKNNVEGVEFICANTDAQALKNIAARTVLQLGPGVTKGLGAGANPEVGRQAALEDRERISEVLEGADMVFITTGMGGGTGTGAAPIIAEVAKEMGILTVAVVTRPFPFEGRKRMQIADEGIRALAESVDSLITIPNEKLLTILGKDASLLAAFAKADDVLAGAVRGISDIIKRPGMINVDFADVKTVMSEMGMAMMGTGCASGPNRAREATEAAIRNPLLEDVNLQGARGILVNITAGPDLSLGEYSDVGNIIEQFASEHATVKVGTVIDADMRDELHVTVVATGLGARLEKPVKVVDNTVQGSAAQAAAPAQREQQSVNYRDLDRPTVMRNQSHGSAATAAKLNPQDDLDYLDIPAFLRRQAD
Test: Fluorescence anisotropy binding of BOFP to FtsZ
Details: 15° C., 50 mM Tris-HCl (pH 7.6), 50 mM KCl, read-out: Kd −15° C.

molecule	Kd, nM
CC1=CC(C)=[N+]2C1=Cc1ccc(CCC(=O)OCC(Oc3ccc(F)c(C(N)=O)c3F)c3nc(-c4ccc(C(F)(F)F)cc4)c(Br)o3)n1[B-]2(F)F (stereo not shown)	230

---

Target: Enterococcus faecalis FtsZ (EfsFtsZ) (Enterococcus faecalis)
Sequence (O08439 whole entry): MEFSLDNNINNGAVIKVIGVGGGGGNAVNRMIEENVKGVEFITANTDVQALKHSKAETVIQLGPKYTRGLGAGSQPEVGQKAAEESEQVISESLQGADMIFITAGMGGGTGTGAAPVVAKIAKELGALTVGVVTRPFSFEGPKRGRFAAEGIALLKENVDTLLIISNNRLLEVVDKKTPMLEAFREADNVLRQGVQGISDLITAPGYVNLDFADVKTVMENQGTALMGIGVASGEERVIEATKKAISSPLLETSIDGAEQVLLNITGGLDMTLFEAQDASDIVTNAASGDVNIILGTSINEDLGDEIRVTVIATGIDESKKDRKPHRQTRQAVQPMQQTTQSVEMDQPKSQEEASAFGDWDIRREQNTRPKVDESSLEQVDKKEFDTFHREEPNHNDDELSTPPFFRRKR
Test: Fluorescence anisotropy binding of BOFP to FtsZ
Conditions: 15° C., 50 mM Tris-HCl (pH 7.6), 50 mM KCl, read-out: Kd −15° C.
pKd: −log10 of the molar value.

compound	pKd
CC1=CC(C)=[N+]2C1=Cc1ccc(CCC(=O)OCC(Oc3ccc(F)c(C(N)=O)c3F)c3nc(-c4ccc(C(F)(F)F)cc4)c(Br)o3)n1[B-]2(F)F (stereo not shown)	5.76

---

Molecular target: Streptococcus pyogenes FtsZ (SpyFtsZ) (Streptococcus pyogenes, UniProt Q99YV7)
Sequence (Q99YV7 entry or part of it): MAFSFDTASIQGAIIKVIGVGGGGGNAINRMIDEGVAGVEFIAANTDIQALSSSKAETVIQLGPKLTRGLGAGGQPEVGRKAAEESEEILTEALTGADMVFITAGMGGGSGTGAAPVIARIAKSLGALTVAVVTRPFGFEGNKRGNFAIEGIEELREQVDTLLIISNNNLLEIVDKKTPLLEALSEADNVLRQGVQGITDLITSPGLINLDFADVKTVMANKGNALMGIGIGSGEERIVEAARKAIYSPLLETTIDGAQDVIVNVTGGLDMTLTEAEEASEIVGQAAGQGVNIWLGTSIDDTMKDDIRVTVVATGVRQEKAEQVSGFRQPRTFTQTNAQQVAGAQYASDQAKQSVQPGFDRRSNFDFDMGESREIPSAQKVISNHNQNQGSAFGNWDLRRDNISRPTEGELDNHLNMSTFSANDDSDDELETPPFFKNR
Assay: Fluorescence anisotropy binding of BOFP to FtsZ
Conditions: 37° C., 50 mM Tris-HCl (pH 7.6), 50 mM KCl, read-out: Kd −37° C.

molecule	Kd [nM]
CC1=CC(C)=[N+]2C1=Cc1ccc(CCC(=O)OCC(Oc3ccc(F)c(C(N)=O)c3F)c3nc(-c4ccc(C(F)(F)F)cc4)c(Br)o3)n1[B-]2(F)F (stereo not shown)	1550

---

Target: Streptococcus pneumoniae FtsZ (SpnFtsZ) (Streptococcus pneumoniae)
Sequence (A0A0H2ZNE0 whole entry): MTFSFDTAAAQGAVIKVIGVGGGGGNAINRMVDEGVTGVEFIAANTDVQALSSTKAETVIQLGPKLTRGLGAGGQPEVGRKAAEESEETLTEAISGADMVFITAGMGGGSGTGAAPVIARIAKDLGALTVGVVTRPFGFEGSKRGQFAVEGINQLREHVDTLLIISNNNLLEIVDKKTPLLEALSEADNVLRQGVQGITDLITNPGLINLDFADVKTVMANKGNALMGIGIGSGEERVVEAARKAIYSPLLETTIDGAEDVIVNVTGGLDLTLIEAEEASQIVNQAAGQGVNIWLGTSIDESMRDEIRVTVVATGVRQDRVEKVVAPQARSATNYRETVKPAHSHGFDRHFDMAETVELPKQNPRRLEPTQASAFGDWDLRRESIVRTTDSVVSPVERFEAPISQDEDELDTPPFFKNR
Assay: Fluorescence anisotropy binding of BOFP to FtsZ
Conditions: 25° C., 50 mM Tris-HCl (pH 7.6), 50 mM KCl, read-out: Kd −25° C.

molecule	output.unit	Kd
CC1=CC(C)=[N+]2C1=Cc1ccc(CCC(=O)OCC(Oc3ccc(F)c(C(N)=O)c3F)c3nc(-c4ccc(C(F)(F)F)cc4)c(Br)o3)n1[B-]2(F)F (stereo not shown)	µM	3.49

---

Biological target: Streptococcus pyogenes FtsZ (SpyFtsZ) (Streptococcus pyogenes, UniProt Q99YV7)
Assay: Fluorescence anisotropy binding of BOFP to FtsZ
Conditions: 25° C., 50 mM Tris-HCl (pH 7.6), 50 mM KCl, read-out: Kd −25° C.
pKd: −log10 of the molar value.
measured.quantity: pKd

compound	measured.quantity	endpoint.result
CC1=CC(C)=[N+]2C1=Cc1ccc(CCC(=O)OCC(Oc3ccc(F)c(C(N)=O)c3F)c3nc(-c4ccc(C(F)(F)F)cc4)c(Br)o3)n1[B-]2(F)F (stereo not shown) [BOFP]	pKd	5.88

---

Molecular target: S. aureus FtsZ (SaFtsZ) (Staphylococcus aureus)
Sequence (P0A031 1-390): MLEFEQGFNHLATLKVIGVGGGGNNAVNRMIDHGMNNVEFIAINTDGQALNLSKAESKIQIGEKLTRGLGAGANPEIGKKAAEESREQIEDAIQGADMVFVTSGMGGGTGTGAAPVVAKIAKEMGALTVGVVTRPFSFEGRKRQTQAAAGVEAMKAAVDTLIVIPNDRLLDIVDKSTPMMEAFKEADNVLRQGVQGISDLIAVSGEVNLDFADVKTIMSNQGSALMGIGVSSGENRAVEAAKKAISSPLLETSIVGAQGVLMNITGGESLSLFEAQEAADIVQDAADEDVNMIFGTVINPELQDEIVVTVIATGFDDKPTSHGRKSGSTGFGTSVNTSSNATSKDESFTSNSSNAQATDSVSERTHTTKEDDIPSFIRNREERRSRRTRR
Assay: Fluorescence anisotropy binding of BOFP to FtsZ
Details: SaFtsZ; 25° C.; 50 mM Tris-HCl (pH 7.6), 50 mM KCl; read-out: Kd −25° C.
pKd: −log10 of the molar value.
measured.quantity: pKd

compound	measured.quantity	endpoint.result
CC1=CC(C)=[N+]2C1=Cc1ccc(CCC(=O)OCC(Oc3ccc(F)c(C(N)=O)c3F)c3nc(-c4ccc(C(F)(F)F)cc4)c(Br)o3)n1[B-]2(F)F (stereo not shown)	pKd	5.78

---

Biological target: Acinetobacter baumannii FtsZ (AbFtsZ) (Acinetobacter baumannii, UniProt V5V8B6)
Sequence (V5V8B6 1-391): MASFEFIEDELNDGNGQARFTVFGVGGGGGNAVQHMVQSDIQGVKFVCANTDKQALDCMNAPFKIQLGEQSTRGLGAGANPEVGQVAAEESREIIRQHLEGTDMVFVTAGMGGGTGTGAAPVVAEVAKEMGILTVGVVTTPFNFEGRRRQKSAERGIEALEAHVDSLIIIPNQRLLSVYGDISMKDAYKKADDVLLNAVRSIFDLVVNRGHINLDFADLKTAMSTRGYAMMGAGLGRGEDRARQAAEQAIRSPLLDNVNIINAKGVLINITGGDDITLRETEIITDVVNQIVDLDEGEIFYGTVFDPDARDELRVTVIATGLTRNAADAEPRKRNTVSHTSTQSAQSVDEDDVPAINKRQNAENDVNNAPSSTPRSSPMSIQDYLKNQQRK
Assay: Fluorescence anisotropy binding of BOFP to FtsZ
Details: 15° C., 50 mM Tris-HCl (pH 7.6), 50 mM KCl, read-out: Kd −15° C.
measured.quantity: Kd (nM)

molecule	endpoint.result
CC1=CC(C)=[N+]2C1=Cc1ccc(CCC(=O)OCC(Oc3ccc(F)c(C(N)=O)c3F)c3nc(-c4ccc(C(F)(F)F)cc4)c(Br)o3)n1[B-]2(F)F (stereo not shown)	400

---

Target: UniProt A0A0H3GRR0
Sequence (A0A0H3GRR0 entry or part of it): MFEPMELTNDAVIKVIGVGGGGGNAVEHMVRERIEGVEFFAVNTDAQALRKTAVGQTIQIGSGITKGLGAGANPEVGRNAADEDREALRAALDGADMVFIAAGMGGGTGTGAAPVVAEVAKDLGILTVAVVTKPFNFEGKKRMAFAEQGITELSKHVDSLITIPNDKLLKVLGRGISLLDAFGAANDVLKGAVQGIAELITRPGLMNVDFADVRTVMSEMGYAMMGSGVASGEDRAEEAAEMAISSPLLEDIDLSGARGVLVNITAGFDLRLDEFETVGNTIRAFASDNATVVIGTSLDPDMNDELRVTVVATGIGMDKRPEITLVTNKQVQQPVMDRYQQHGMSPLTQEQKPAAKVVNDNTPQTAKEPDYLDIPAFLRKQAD
Test: Fluorescence anisotropy binding of BOFP to FtsZ
Details: 37° C., 50 mM Tris-HCl (pH 7.6), 50 mM KCl, read-out: Kd −37° C.
pKd: −log10 of the molar value.

compound	tested.target	pKd
CC1=CC(C)=[N+]2C1=Cc1ccc(CCC(=O)OCC(Oc3ccc(F)c(C(N)=O)c3F)c3nc(-c4ccc(C(F)(F)F)cc4)c(Br)o3)n1[B-]2(F)F (stereo not shown) [BOFP]	UniProt A0A0H3GRR0	6.09

---

Molecular target: Acinetobacter baumannii FtsZ (AbFtsZ) (Acinetobacter baumannii, UniProt V5V8B6)
Test: Fluorescence anisotropy binding of BOFP to FtsZ
Conditions: 25° C., 50 mM Tris-HCl (pH 7.6), 50 mM KCl, read-out: Kd −25° C.
pKd: −log10 of the molar value.
measured.quantity: pKd

molecule	measured.quantity	endpoint.result
CC1=CC(C)=[N+]2C1=Cc1ccc(CCC(=O)OCC(Oc3ccc(F)c(C(N)=O)c3F)c3nc(-c4ccc(C(F)(F)F)cc4)c(Br)o3)n1[B-]2(F)F (stereo not shown)	pKd	6.26

---

Target: S. aureus FtsZ (SaFtsZ) (Staphylococcus aureus, UniProt P0A031)
Assay: Fluorescence anisotropy binding of BOFP to FtsZ
Conditions: SaFtsZ; 15° C.; 50 mM Tris-HCl (pH 7.6), 50 mM KCl; read-out: Kd −15° C.

compound	tested.target	Kd
CC1=CC(C)=[N+]2C1=Cc1ccc(CCC(=O)OCC(Oc3ccc(F)c(C(N)=O)c3F)c3nc(-c4ccc(C(F)(F)F)cc4)c(Br)o3)n1[B-]2(F)F (stereo not shown) [BOFP]	S. aureus FtsZ (SaFtsZ) (Staphylococcus aureus, UniProt P0A031)	880 nM

Where do the numbers come from? From patent US12061201B2.
